Experiment: Basic solubility at 25° C. in ethanol, PEG 400, propylene glycol (PG) and buffer solution; solubility ratio non-aqueous solvent / buffer solution
Settings: 25° C.; phosphate buffer pH 7.0
Protocol: In this regard, the buffer solution had the following composition: • 0.2% sodium hydrogen phosphate hydrate • 0.3% sodium dihydrogen phosphate hydrate • sodium hydroxide and hydrochloric acid (suitable amount was added to adjust the pH to 7.0; however, pH was adjusted to 7.4 for cabozantinib and telmisartan). […] Each compound was measured in the same manner described above. In the Table, the molecular weight and Log P values are reference values (or values calculated from reference values).
Readout Name: Solubility, Buffer solution (%)

[a] C[C@@H]1C[C@H]2[C@@H]3CCC4=CC(=O)C=C[C@]4(C)[C@@]3(F)[C@@H](O)C[C@]2(C)[C@@]1(O)C(=O)CO
[b] CC1(C)O[C@@H]2C[C@H]3[C@@H]4CCC5=CC(=O)C=C[C@]5(C)[C@@]4(F)[C@@H](O)C[C@]3(C)[C@]2(C(=O)CO)O1 [triamcinolone acetonide]
**Q:** Which of the two gives a bigger number for Solubility, Buffer solution: a or b ? Give the label of your selection.
**A:** a
(a: 0.008221%, b: 0.001426%)

----------
assay: Basic solubility at 25° C. in ethanol, PEG 400, propylene glycol (PG) and buffer solution; solubility ratio non-aqueous solvent / buffer solution; conditions: 25° C.; buffer pH 7.0 (pH 7.4 for cabozantinib and telmisartan; pH 6.0 for rebamipide)
Readout Name: Solubility ratio of solvent with respect to buffer solution Ethanol/buffer solution

• C=C(C)[C@H]1Cc2c(ccc3c2O[C@@H]2COc4cc(OC)c(OC)cc4[C@@H]2C3=O)O1 [Rotenone] = 30294.14
• Brc1cccc2c1oc1ccccc12 [4-bromadibenzofuran] = 426955.49
• COc1cc2nccc(Oc3ccc(NC(=O)C4(C(=O)Nc5ccc(F)cc5)CC4)cc3)c2cc1OC [Cabozantinib] = 1949439.39
• CNC(=O)c1cc(Oc2ccc(NC(=O)Nc3ccc(Cl)c(C(F)(F)F)c3)c(F)c2)ccn1 [Regorafenib] = 2004388.60
